Test: XTT cytotoxicity assay on L929 cells
Type: cell-based
Details: mouse

{"SMILES INPUT": "O=S(=O)(O)CCN(Cl)Cl", "viability at 60 min, 7 mM": "> 90%"}
